# System: 786-O
# ASSAY PROCEDURE: Cancer cytotoxicity assay (Real-Time-Glo cell viability), 786-O
# Format: cell-based
# PROTOCOL CONDITIONS: Homo sapiens, 786-0; kidney cancer, 72 hr
Entries and their measured IC50 follow.
PROPERTY NAME: IC50

>  <CHEM SMILES>
CCc1cc(Nc2nc(N3CCC(F)(F)CC3)nc3cc(OCCCN4CCCC4)c(OC)cc23)n[nH]1

>  <RESULT>
1000 to 5000 nM

$$$$
>  <CHEM SMILES>
COc1cc2c(Nc3cc(C)[nH]n3)nc(N3CCCC3)nc2cc1OCCCN1CCCC1

>  <RESULT>
5000 to 10000 nM

$$$$
>  <CHEM SMILES>
COc1cc2c(Nc3cc(C4CC4)[nH]n3)nc(N3CCC(F)(F)CC3)nc2cc1OCCCN1CCCC1

>  <RESULT>
1000 to 5000 nM

$$$$
>  <CHEM SMILES>
COc1cc2c(Nc3cc(C)[nH]n3)nc(N3CCC(F)(F)CC3)nc2cc1OCCCN1CCCC1

>  <RESULT>
5000 to 10000 nM

$$$$
>  <CHEM SMILES>
COc1cc2c(Nc3cc(C(C)C)[nH]n3)nc(N3CCC(F)(F)CC3)nc2cc1OCCCN1CCCC1

>  <RESULT>
1000 to 5000 nM

$$$$
>  <CHEM SMILES>
COc1cc2c(Nc3cc(C)[nH]n3)nc(N3CCC3)nc2cc1OCCCN1CCCC1

>  <RESULT>
> 10000 nM

$$$$
>  <CHEM SMILES>
COc1cc2c(Nc3cc(C4CCC4)[nH]n3)nc(N3CCC(F)(F)CC3)nc2cc1OCCCN1CCCC1

>  <RESULT>
1000 to 5000 nM

$$$$
>  <CHEM SMILES>
COc1cc2c(Nc3nnc(C)s3)nc(N3CCC(F)(F)CC3)nc2cc1OCCCN1CCCC1

>  <RESULT>
5000 to 10000 nM

$$$$
>  <CHEM SMILES>
COc1cc2c(Nc3cc(C(C)(C)C)[nH]n3)nc(N3CCC(F)(F)CC3)nc2cc1OCCCN1CCCC1

>  <RESULT>
1000 to 5000 nM

$$$$
>  <CHEM SMILES>
COc1cc2c(Nc3ncc(C)s3)nc(N3CCC(F)(F)CC3)nc2cc1OCCCN1CCCC1

>  <RESULT>
1000 to 5000 nM

$$$$

----------
Entries and their measured IC50 follow.
# Tested on: Kasumi-3
# ASSAY PROCEDURE: Cancer cytotoxicity assay (Real-Time-Glo cell viability), Kasumi-3
# Assay type: cell-based
# PROTOCOL CONDITIONS: leukemia cell, 72 hr

>  <CHEM SMILES>
COc1cc2c(Nc3cc(C(C)C)[nH]n3)nc(N3CCC(F)(F)CC3)nc2cc1OCCCN1CCCC1

>  <IC50>
1000 to 5000 nM

$$$$
>  <CHEM SMILES>
COc1cc2c(Nc3cc(C4CCC4)[nH]n3)nc(N3CCC(F)(F)CC3)nc2cc1OCCCN1CCCC1

>  <IC50>
< 1000 nM

$$$$
>  <CHEM SMILES>
COc1cc2c(Nc3nnc(C)s3)nc(N3CCC(F)(F)CC3)nc2cc1OCCCN1CCCC1

>  <IC50>
1000 to 5000 nM

$$$$
>  <CHEM SMILES>
COc1cc2c(Nc3ncc(C)s3)nc(N3CCC(F)(F)CC3)nc2cc1OCCCN1CCCC1

>  <IC50>
1000 to 5000 nM

$$$$
>  <CHEM SMILES>
CCc1cc(Nc2nc(N3CCC(F)(F)CC3)nc3cc(OCCCN4CCCC4)c(OC)cc23)n[nH]1

>  <IC50>
1000 to 5000 nM

$$$$
>  <CHEM SMILES>
COc1cc2c(Nc3cc(C)[nH]n3)nc(N3CCCC3)nc2cc1OCCCN1CCCC1

>  <IC50>
5000 to 10000 nM

$$$$
>  <CHEM SMILES>
COc1cc2c(Nc3cc(C(C)(C)C)[nH]n3)nc(N3CCC(F)(F)CC3)nc2cc1OCCCN1CCCC1

>  <IC50>
1000 to 5000 nM

$$$$
>  <CHEM SMILES>
COc1cc2c(Nc3cc(C)[nH]n3)nc(N3CCC(F)(F)CC3)nc2cc1OCCCN1CCCC1

>  <IC50>
5000 to 10000 nM

$$$$
>  <CHEM SMILES>
COc1cc2c(Nc3cc(C)[nH]n3)nc(N3CCC3)nc2cc1OCCCN1CCCC1

>  <IC50>
> 10000 nM

$$$$
>  <CHEM SMILES>
COc1cc2c(Nc3cc(C4CC4)[nH]n3)nc(N3CCC(F)(F)CC3)nc2cc1OCCCN1CCCC1

>  <IC50>
1000 to 5000 nM

$$$$
